- target: GPALPP1 (UniProt Q8IXQ4)
- Sequence: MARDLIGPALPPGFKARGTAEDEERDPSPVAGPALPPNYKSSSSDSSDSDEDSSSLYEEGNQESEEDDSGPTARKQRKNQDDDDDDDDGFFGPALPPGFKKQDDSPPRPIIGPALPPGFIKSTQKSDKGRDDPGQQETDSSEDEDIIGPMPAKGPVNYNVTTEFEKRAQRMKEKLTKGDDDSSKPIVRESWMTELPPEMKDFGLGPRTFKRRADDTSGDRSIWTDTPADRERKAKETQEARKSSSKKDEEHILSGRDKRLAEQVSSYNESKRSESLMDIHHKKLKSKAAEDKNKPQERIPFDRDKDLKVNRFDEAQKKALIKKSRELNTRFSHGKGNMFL
- test.protocol: Kd (EC50 corrected by depletion factor)
measurement.kind: Kd (nM)

>>> observed("AAUAAA")
33
